- Measurement notes: NCI Yeast Anticancer Drug Screen. Data for the rad50 strain (AID 155);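 also: 0% = growth of vehicle-only cultures of the same strain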
- Condition parameters: S. cerevisiae rad50 strain growth inhibition; at 50.0 µM (retest, dose inferred, filed as 5.0)
About 79,000 compounds went through this panel and 15% of them were active in at least one assay; those are over-represented in the sample as a whole. Activity calls are given as the source filed them. Rule as the data show it: active = growth inhibition above about 70%; inactive = the rest.
Pick one: Y for active, N for inactive

Input: How was `O=C(O)/C(=C\c1cc(I)c(O)c(I)c1)c1ccc(I)cc1` classified in this test?
Output: N

Input: // return assay outcome for `Cc1cc(N(CCCCl)CCCCl)ccc1C=Nc1cccc(Cl)c1`
Output: N

Input: Which result was noted for this compound in the test: `COc1ccnc2c1C(=O)c1nc3ccccc3c3ccnc-2c13`
Output: Y

Input: Can you look up the reported call for `CCC[CH2][Sn]([CH2]CCC)([O]C(=O)c1cc(OC)c(OC)cc1OC)[O]C(=O)c1cc(OC)c(OC)cc1OC` for me?
Output: Y

Input: Please share the test call associated with O=C(NC1=C(Cl)C(=O)c2ccccc2C1=O)C(=O)C(C(=O)c1ccc2ccccc2c1)C1OC(=O)c2ccccc21 (centres undefined) .
Output: Y

Input: Please let me know the test result on file for `CCCSc1ncnc2nc(C)[nH]c12` .
Output: N

Input: For this compound, state the assay outcome: `N#CCCN(CCC#N)Cc1c(O)c(O)c(CN(CCC#N)CCC#N)c2ccccc12`
Output: N

Input: How was Cc1c(Cl)ccc2c1NC(=O)C2(O)CC(=O)c1ccc(Cl)cc1 (centres undefined) classified in this test?
Output: Y

New cases:
Input: What was the test verdict on `Nc1nc(-c2ccccc2)cc(-c2ccccc2O)n1` ?
Output: N

Input: What classification did `CCN1CCNc2c3cc(OC)ccc3nc3c([N+](=O)[O-])ccc1c23` end up with in this test?
Output: N

Input: What outcome does the record of this test show for `O=C1/C(=N/N=C(c2ccccc2)c2ccccc2)c2ccccc2-c2ccccc21` ?
Output: N

Input: Outcome logged for `CCCCNc1ccc(C(=O)OC2CCN(C)CC2)c(Cl)c1` in this assay:
Output: Y

Input: Entry `CC[n+]1cnc(N)c2c(-c3ccc(Cl)cc3)cn(-c3ccc(C)cc3)c21` : call = ?
Output: Y

Input: Look up the recorded call for `O=C(Nn1cc(F)c(=O)[nH]c1=O)C12CC3CC(CC(C3)C1)C2` in this test.
Output: Y

Input: Which outcome did this test record for the compound `O=[N+]([O-])c1ccc(-c2nc3c(o2)CCC3)cc1` ?
Output: N

Input: How did this test come out for O=C(c1ccc(Cl)cc1)C1N=NCC1c1ccccc1 (centres undefined) ?
Output: N

* * *

- Measurement notes: NCI Yeast Anticancer Drug Screen. Data for the cln2 rad14 strain (AID 165);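 also: 0% = growth equal to vehicle treated cultures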
- Condition parameters: S. cerevisiae cln2 rad14 strain, at 5.0 µM (retest, dose inferred, filed as 0.5), active compounds read high
The panel holds about 79,000 compounds, 15% with a hit somewhere; the sample as a whole holds those more often.
Metric name: growth inhibition (%)
Give bare numbers, in %.

Solved cases (8 shown):
Input: Look up and report measured growth inhibition for this entry: `O=[N+]([O-])c1ccccc1NC1CCN(CCCC2(c3ccc(F)cc3)OCCO2)CC1`
Output: 9

Input: Give the value of growth inhibition reported for the following: `Cc1cc(O)ccc1SC#N`
Output: -3

Input: Give the value of growth inhibition reported for the following: `CC(=O)C(C(C)=O)C1C=CC=CC=C1`
Output: -59

Input: Output measured growth inhibition for this item: `Clc1cccc(Cl)c1C(Nc1nncs1)Nc1nncs1`
Output: 8

Input: Identify the reported growth inhibition for the following entry. `CN(C)CCCN=c1c2ccccc2n(O)c2ccccc12`
Output: 22

Input: Please report the measured growth inhibition for `CCOP(=O)(OCC)/C(C#N)=C/c1coc2cc(C)cc(C)c2c1=O`
Output: 0

Input: Answer with reported growth inhibition of `CC(=O)Nc1cccc2c1ccc1ccc3ccccc3c12`
Output: -12

Input: Determine from records and report growth inhibition for `CCCCCCCCCCCC[n+]1ccc(C#N)cc1`
Output: 26

Give one value of growth inhibition per listed compound.
1. CCCOC(=O)CCCC(=O)N(CC)CC
2. CCOC(=O)N1c2ccc3ccccc3c2C=CC1C#N (stereo not drawn)

Output:
1: -5; 2: -11

* * *

Can you tell me growth inhibition for the items I'm about to list?
- Measurement notes: NCI Yeast Anticancer Drug Screen. Data for the sgs1 mgt1 strain (AID 161);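 also: 0% = growth of cultures given vehicle only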
- Condition parameters: S. cerevisiae sgs1 mgt1 strain, at 50.0 µM, active compounds read high
- Experimental: Growth inhibition of yeast strains with defined genetic alterations is measured as a screen for potential anti-cancer activity. Selected strains with alterations in DNA damage repair or cell cycle control were exposed to compounds and growth inhibition was measured relative to vehicle treated controls. The strain used in this assay is sgs1 mgt1
The panel holds about 79,000 compounds, 15% with a hit somewhere; the sample as a whole holds those more often.
Answers are plain numbers, in %.

Input: Look up and report measured growth inhibition for this entry: `Cc1n(CC(C)C)c2c([n+]1CC(=O)c1ccc([N+](=O)[O-])cc1)C(=O)c1ccccc1C2=O`
Output: 91.3

Input: Output growth inhibition of `CN(NC(=O)CC(=O)NN(C)C(=S)c1ccccc1)C(=S)c1ccccc1`
Output: 91.7

Input: Answer with the recorded growth inhibition for the molecule listed here: CCN(CC)CCCC(C)Nc1cc(F)cc2cccnc12 (centres undefined)
Output: 88.8

Please turn your attention to the following entry.
Input: Please indicate growth inhibition recorded for `COc1ccc2c(c1)CCn1c(C)c(COC(=O)NC(C)C)c(COC(=O)NC(C)C)c1-2`
Output: 89.2

* * *

- Measurement notes: NCI Yeast Anticancer Drug Screen. Data for the rad50 strain (AID 155);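 also: 0% = growth of vehicle-only cultures of the same strain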
- Condition parameters: S. cerevisiae rad50 strain growth inhibition; at 50.0 µM
This is part of a sample that, as a whole, favours compounds with a hit. Of some 79,000 tested, about 15% had one in any assay. Activity calls are given as the source filed them. Rule as the data show it: active = growth inhibition above about 70%; inactive = the rest.
Respond only with the outcome that fits, drawn from y for active, n for inactive

These solved cases illustrate the format of a correct answer.
Input: Called result for CC1(C(Cl)(Cl)Cl)C=CC(=NO)C=C1 (stereo not given)
Output: n

Input: Give the logged outcome of this assay for the following compound: `Nc1cc(=O)[nH]c(=S)[nH]1.[Pd]`
Output: n

Input: Which outcome did this test record for the compound `N#CC1(C#N)C(C#N)(C#N)C12CCC2` ?
Output: n

Input: Kindly provide the recorded test outcome for the following compound: `CCCCCCCCCCCC#CCCCCC(=O)O`
Output: n

Input: How did this test come out for `O=C([O-])C[n+]1c(/C=C/c2ccccc2)ccc2ccccc21` ?
Output: n

Input: Please share the test call associated with O=[N+]([O-])c1ccc2c(c1)[n+]([O-])c1[nH]c3ccccc3c1[n+]2[O-] (tested in a mixture with another compound) .
Output: y

Input: Each compound tested received a call. Report the one for CCOC1(c2ccccc2)c2ccccc2S(=O)(=O)N1C (stereo not given) .
Output: n

Input: What classification did `Cc1cccc(N=Nc2ccc(O)cc2)c1` end up with in this test?
Output: y

Continuing:
Input: Identify the outcome logged in this assay for the compound shown: CC1CCC2(C)C(CC=C(C=O)C2(O)C=O)C12CO2 (stereo not given)
Output: y

Input: Hello, I am checking results. What call was entered for `COc1ccc(NNC(=O)c2ccccc2)cc1` ?
Output: y

Input: Per the assay record, what outcome was assigned to `CC(=O)Nc1ccc(O)c(=O)cc1` ?
Output: y

* * *

- Measurement notes: NCI Yeast Anticancer Drug Screen. Data for the cln2 rad14 strain (AID 165);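 also: 0% = growth equal to vehicle treated cultures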
- Condition parameters: S. cerevisiae cln2 rad14 strain, at 5.0 µM (retest, dose inferred, filed as 0.5), active compounds read high
Compounds without any hit were thinned out: in the full panel of roughly 79,000, 15% have a hit.
Metric name: growth inhibition (%)
Give bare numbers, in %.

// worked examples, growth inhibition included
Input: Supply reported growth inhibition belonging to this compound: `Cc1cc(O)c(/C=N/C(=S)Nc2ccc(S(N)(=O)=O)cc2)c(=O)o1`
Output: 8

Input: Tell me growth inhibition reported for `CCN(CC)c1c(C(=O)/C=C/c2ccc(F)cc2)c(-c2ccccc2)nn(C)c1=O`
Output: 16

Input: Given the compound CC(=O)OCCC1=CCC2CC1C2(C)C (centres undefined) , write its reported growth inhibition.
Output: -6

Input: Identify the reported growth inhibition for the following entry. `CCC[CH2][Sn]([CH2]CCC)([O]C(=O)c1cccc(F)c1F)[O]C(=O)c1cccc(F)c1F`
Output: 55

Input: Respond only with growth inhibition recorded for `CCCCCC/C=C/C#CCCCCCCCC(=O)O`
Output: 17

Input: Read off the recorded growth inhibition for `CCCCCCCC[N+](C)(C)Cc1ccc(C[N+](C)(C)CCCCCCCC)cc1`
Output: 0

Input: Give the reported value of growth inhibition for this record: `O=C([O-])C[n+]1c(/C=C/c2ccccc2)ccc2ccccc21`
Output: -3

Input: Tell me growth inhibition reported for ON1CCc2c([nH]c3ccccc23)C1c1ccc(Cl)cc1 (centres undefined)
Output: -8

Could you report growth inhibition for every entry in the following list?
1. Cc1[nH]c2ccccc2c1SCc1ccccc1
2. C/C(=N/NC(=O)Nc1ccc(N=Nc2ccccc2)cc1)c1ccccn1
3. COc1ccc2c(c1)CCC/C2=N\NS(=O)(=O)c1c(C)cc(C)cc1C
4. CCc1ccccc1NC(=O)C(C#N)C1=C(Cl)C(=O)c2ccccc2C1=O (centres undefined)
5. O=C1/C(=C/c2cccc(Br)c2)CCc2ccccc21
6. COC(=O)c1cc(/C=C/c2ccccc2)on1

Output:
[-2, 33, 8, 20, -5, -4]
